# target desc: recombinant Human Phosphodiesterase B2 (PDE4B2) (Homo sapiens, UniProt Q07343)
# Sequence (Q07343 1-564 isoform Q07343-2): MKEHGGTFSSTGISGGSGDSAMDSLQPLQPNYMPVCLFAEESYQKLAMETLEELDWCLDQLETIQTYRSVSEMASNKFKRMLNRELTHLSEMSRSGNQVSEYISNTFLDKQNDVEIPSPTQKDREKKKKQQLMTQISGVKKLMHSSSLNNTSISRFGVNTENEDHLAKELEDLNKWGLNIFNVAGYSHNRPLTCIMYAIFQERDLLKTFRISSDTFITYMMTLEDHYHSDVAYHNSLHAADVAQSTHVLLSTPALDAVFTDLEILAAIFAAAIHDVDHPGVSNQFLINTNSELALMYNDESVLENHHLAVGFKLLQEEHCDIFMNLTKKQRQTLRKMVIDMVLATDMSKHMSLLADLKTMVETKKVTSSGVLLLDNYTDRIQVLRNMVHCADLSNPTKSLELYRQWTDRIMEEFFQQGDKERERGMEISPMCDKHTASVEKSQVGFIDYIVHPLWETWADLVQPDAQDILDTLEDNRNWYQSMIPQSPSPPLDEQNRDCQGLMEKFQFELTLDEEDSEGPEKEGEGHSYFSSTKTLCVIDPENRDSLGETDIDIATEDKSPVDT
# test: Human Phosphodiesterase B2 Radiometric Assay
# Assay type: biochemical
# condition details: SPA assay, 0.1 μg/mL recombinant PDE4B2, 8 nM [3H]cyclic AMP, preincubated 30 min at 30 C, reaction 20 minutes; read-out: PDE4B2 pIC50 (converted)
Attribute: IC50
Express the result in nM but write the number alone.

Worked cases, IC50 given:
- O=C(CN1CCN(Cc2ccccc2)CC1)NC1CCC(n2c(=O)c3cc(F)cnc3n(C3CCSCC3)c2=O)CC1 (stereo not shown): 0.0794
- NCC1CCc2nc(C(=O)N[C@H]3CC[C@@H](n4c(=O)c5cc(F)cnc5n(C5CCSCC5)c4=O)CC3)cn2C1 (stereo partly shown): 6.31
- CN1CCN(Cc2ccc(C(=O)NC3CCC(n4c(=O)c5cc(F)cnc5n(C5CCSCC5)c4=O)CC3)cc2)CC1 (stereo not shown): 3.16

Alright, here's another molecule for you.
# IC50 of O=C(CN1CCN(C(=O)Cc2ccccc2)CC1)NC1CCC(n2c(=O)c3cc(F)cnc3n(C3CCSCC3)c2=O)CC1 (stereo not shown) = 2
